// pIC50 lookup, one value per entry
test system: MERS WT; experiment: microbe, parasite or virus in culture; type: cell-based; details: read-out: MERS WT
pIC50: −log10 of the molar value.

{"columns": ["molecule", "pIC50"],
 "data": [
  ["CC(NC(=O)C(Cc1ccccc1)NC(=O)Cc1ccccc1)C(=O)C(=O)NC(Cc1ccccc1)C(=O)NC(Cc1ccc2ccccc2c1)C(N)=O (centres unmarked) [PHELIX215]", 6.00],
  ["CC(NC(=O)C(Cc1ccccc1)NC(=O)Cc1ccccc1)C(=O)C(=O)NC(Cc1ccccc1)C(=O)NC(Cc1ccc2ccccc2c1)C(N)=O (centres unmarked) [PHELIX220]", 5.50]
]}

----------
biological target: Calpain; assay: Calpain enzyme assay; conditions: Ki by Morrison equation; pH 7.5, 5 mM CaCl2
pKi: −log10 of the molar value.
Listed here are compounds together with their documented pKi.

{"columns": ["compound", "subject of test", "cmp", "pKi"],
 "data": [
  ["CC(NC(=O)[C@H](Cc1ccccc1)NC(=O)C(c1ccccc1)c1ccccc1)C(=O)C(=O)N[C@@H](Cc1ccccc1)C(=O)NC(C)(C)C(N)=O (stereo partly drawn) [PHELIX237]", "Calpain", "<", 5.00],
  ["CCC(C)C(NC(=O)C(CC(C)C)NC(=O)OCc1ccccc1)C(=O)C(=O)N(C)CC(=O)NC(Cc1ccc2ccccc2c1)C(N)=O (stereo not drawn) [PHELIX291]", "Calpain", "<", 5.00],
  ["CCC(C)C(NC(=O)C(=O)C(C)NC(=O)C(CC(C)C)NC(=O)Cc1ccccc1)C(=O)NC(C)(C)C(=O)O (stereo not drawn) [PHELIX171]", "Calpain", "=", 5.41],
  ["CCC(C)C(NC(=O)C(CC(C)C)NC(=O)CN1CCN(C)CC1)C(=O)C(=O)NCC(=O)NC(Cc1ccc2ccccc2c1)C(N)=O (stereo not drawn) [PHELIX313]", "Calpain", "=", 8.00],
  ["CC(NC(=O)C(Cc1ccccc1)NC(=O)Cc1ccccc1)C(=O)C(=O)NC(Cc1cc2ccccc2[nH]1)C(=O)NC(C)(C)C(N)=O (stereo not drawn) [PHELIX232]", "Calpain", "<", 5.00],
  ["CCC(C)C(NC(=O)C(CC(C)C)NC(=O)OCc1ccccc1)C(=O)C(=O)N1CC(C(=O)NCc2ccc(C(=N)N)cc2)C1 (stereo not drawn) [PHELIX366]", "Calpain", "=", 6.35]
]}

----------
molecular target: Cathepsin B (Homo sapiens, UniProt P07858); assay: Cathepsin B enzyme assay; conditions: Cat B (μM), Ki by Morrison equation; pH 6.0, substrate Z-Phe-Arg-Amc
*1 amine or outer side, *2 acyl side, *3 side chain or, on linkers, in order; H or OH if unused. Where a SMILES comes first, the peptide text is derived from it. [ ]: non-standard residue; d: D form. The star is where a group is joined. 2Nal = N[CH](Cc1ccc2ccccc2c1)C(=O)O; X2 = C=CCOCC(N[*:1])C(=O)C(=O)[*:2]; Ser(allyl) = C=CCOC[CH](N)C(=O)O; PhAc = O=C(Cc1ccccc1)*; Allyl = C=CC*
The following molecules are shown together with reported Ki values.
endpoint: Ki (µM)

{"columns": ["molecule", "cmp", "endpoint value"],
 "data": [
  ["CC(C)CC(NC(=O)OCc1ccccc1)C(=O)NC(Cc1ccccc1)C(=O)C(=O)NCC(=O)NC(Cc1ccc2ccccc2c1)C(N)=O (stereo not drawn)", "=", 0.24],
  ["CC(NC(=O)C(Cc1ccccc1)NC(=O)c1cccc(F)c1)C(=O)C(=O)NC(Cc1ccccc1)C(=O)NC(C)(C)C(N)=O (stereo not drawn)", "=", 1.83],
  ["CC(C)CC(NC(=O)Cc1ccccc1)C(=O)NC(C)C(=O)C(=O)NC(C)C(=O)NC(C)(C)C(N)=O (stereo not drawn)", "=", 7.74],
  ["Cc1ccccc1CC(=O)NC(Cc1ccccc1)C(=O)NC(C)C(=O)C(=O)NC(Cc1ccccc1)C(=O)NC(C)(C)C(N)=O (stereo not drawn)", "=", 0.273],
  ["CC(NC(=O)C(Cc1ccccc1)NC(=O)Cc1ccccc1)C(=O)C(=O)NC(Cc1ccccc1C(F)(F)F)C(=O)NC(Cc1ccc(-c2ccccc2)cc1)C(N)=O (stereo not drawn)", ">", 10],
  ["CC(NC(=O)C(Cc1ccc(F)cc1)NC(=O)Cc1ccccc1)C(=O)C(=O)NC(Cc1ccccc1)C(=O)NC(C)(C)C(N)=O (stereo not drawn)", "=", 0.42],
  ["CCCCC(=O)NC(Cc1ccccc1)C(=O)NC(C)C(=O)C(=O)NC(Cc1ccccc1)C(=O)NC(C)(C)C(N)=O (stereo not drawn)", ">", 10],
  ["CC(NC(=O)C(Cc1ccccc1)NC(=O)Cc1ccccc1)C(=O)C(=O)NC(Cc1ccc(-c2ccccc2)cc1)C(=O)NC(C)(C)C(N)=O (stereo not drawn)", ">", 10],
  ["C=CCOCC(NC(=O)C(CC(C)C)NC(=O)C(Cc1ccc(OCC=C)cc1)NC(=O)Cc1ccccc1)C(=O)C(=O)NCC(=O)NC(Cc1ccc2ccccc2c1)C(N)=O (stereo not drawn) [PHELIX202] (PhAc-Y(Allyl)L[X2]G[2Nal]-NH2; configuration not given here)", "=", 0.692],
  ["CC(NC(=O)C(Cc1ccccc1)NC(=O)Cc1ccccc1)C(=O)C(=O)NC(Cc1ccccc1)C(=O)NC(Cc1ccc2ccccc2c1)C(N)=O (stereo not drawn) [PHELIX215]", "=", 9.24],
  ["CC(NC(=O)C(Cc1ccccc1)NC(=O)Cc1ccccc1)C(=O)C(=O)NC(Cc1ccc(C(F)(F)F)cc1)C(=O)NC(Cc1ccc(-c2ccccc2)cc1)C(N)=O (stereo not drawn)", ">", 10],
  ["CCC(C)C(NC(=O)C(=O)C(C)NC(=O)C(Cc1ccccc1)NC(=O)Cc1ccc(-c2ccccc2)cc1)C(=O)NC(C)(C)C(=O)O (stereo not drawn)", "=", 0.0414],
  ["CC(NC(=O)C(Cc1ccccc1)NC(=O)c1ccccc1F)C(=O)C(=O)NC(Cc1ccccc1)C(=O)NC(C)(C)C(N)=O (stereo not drawn)", "=", 0.422],
  ["CC(C)CC(NC(=O)OCc1ccccc1)C(=O)NC(C)C(=O)C(=O)N1CC(C(=O)NC(Cc2ccccc2)C(N)=O)C1 (stereo not drawn)", "=", 0.0479],
  ["CC(NC(=O)C(Cc1cccc2ccccc12)NC(=O)Cc1ccccc1)C(=O)C(=O)NC(Cc1ccccc1)C(=O)NC(C)(C)C(N)=O (stereo not drawn)", "=", 0.977],
  ["CCC(C)C(NC(=O)C(=O)C(C)NC(=O)C(CC(C)C)NC(=O)Cc1ccccc1)C(=O)NC(C)(C)C(=O)O (stereo not drawn)", "=", 0.56],
  ["CC(NC(=O)C(Cc1ccccc1)NC(=O)Cc1ccccc1)C(=O)C(=O)NC(Cc1ccc2ccccc2c1)C(=O)NC(C)(C)C(=O)O (stereo not drawn)", "=", 0.439],
  ["CC(NC(=O)C(Cc1ccccc1)NC(=O)Cc1ccccc1)C(=O)C(=O)NC(Cc1ccc(F)cc1)C(=O)NC(Cc1ccc(-c2ccccc2)cc1)C(N)=O (stereo not drawn)", "=", 0.435],
  ["CC(NC(=O)C(Cc1ccccc1)NC(=O)Cc1ccccc1)C(=O)C(=O)NC(CC1CCCCC1)C(=O)NC(C)(C)C(=O)O (stereo not drawn)", "=", 0.0012],
  ["C=CCOCC(NC(=O)Cc1ccccc1)C(=O)NC(CC(C)C)C(=O)NC(COCC=C)C(=O)C(=O)NCC(=O)NC(Cc1ccc2ccccc2c1)C(N)=O (stereo not drawn) [PHELIX200] (PhAc-[Ser(allyl)]L[X2]G[2Nal]-NH2; configuration not given here)", "=", 0.0881],
  ["CC(NC(=O)C(Cc1cccc(F)c1)NC(=O)Cc1ccccc1)C(=O)C(=O)NC(Cc1ccccc1)C(=O)NC(C)(C)C(N)=O (stereo not drawn)", "=", 0.231],
  ["CC(NC(=O)C(Cc1ccccc1)NC(=O)Cc1ccccc1)C(=O)C(=O)NC(Cc1ccccc1)C(=O)NC(C)(C)C(=O)O (stereo not drawn)", "=", 0.0028],
  ["CC(NC(=O)[C@H](Cc1ccccn1)NC(=O)Cc1ccccc1)C(=O)C(=O)N[C@@H](Cc1ccccc1)C(=O)N[C@@H](Cc1ccccc1)C(N)=O (stereo partly drawn)", "=", 7.52],
  ["CCC(C)C(NC(=O)C(=O)C(C)NC(=O)C(Cc1cccc(C)c1)NC(=O)Cc1ccccc1)C(=O)NC(C)(C)C(=O)O (stereo not drawn)", "=", 0.0069]
]}

These entries and their values trace back to patent US20190085024A1.
